Measurement Protocol: Chemical stability of compound in buffer at pH 7.4 assessed as compound remaining at 10 mg/ml after 1 day
Assay type: physicochemical
Condition Set: read-out: Stability
Known remaining at 24 h, 10 mg/ml of a selection of molecules
Readout Type: remaining at 24 h, 10 mg/ml

> print(dat)
                                   molecule                 readout.type  result
1  CB1C=Cc2cccc(OCC(O)CNC(C)C)c2N1 (stereo not drawn)  remaining at 24 h, 10 mg/ml     93%
2  CC(C)NCC(O)COc1cccc2ccccc12 (stereo not drawn) [PROPRANOLOL]  remaining at 24 h, 10 mg/ml    100%
3  CB1C=Cc2c(cccc2OCC(O)CN(C)C)N1 (stereo not drawn)  remaining at 24 h, 10 mg/ml     96%

###

Known pEC50 of a selection of compounds
Tested On: Muscarinic acetylcholine receptor M3 (Homo sapiens, UniProt P20309)
Sequence (P20309 whole entry): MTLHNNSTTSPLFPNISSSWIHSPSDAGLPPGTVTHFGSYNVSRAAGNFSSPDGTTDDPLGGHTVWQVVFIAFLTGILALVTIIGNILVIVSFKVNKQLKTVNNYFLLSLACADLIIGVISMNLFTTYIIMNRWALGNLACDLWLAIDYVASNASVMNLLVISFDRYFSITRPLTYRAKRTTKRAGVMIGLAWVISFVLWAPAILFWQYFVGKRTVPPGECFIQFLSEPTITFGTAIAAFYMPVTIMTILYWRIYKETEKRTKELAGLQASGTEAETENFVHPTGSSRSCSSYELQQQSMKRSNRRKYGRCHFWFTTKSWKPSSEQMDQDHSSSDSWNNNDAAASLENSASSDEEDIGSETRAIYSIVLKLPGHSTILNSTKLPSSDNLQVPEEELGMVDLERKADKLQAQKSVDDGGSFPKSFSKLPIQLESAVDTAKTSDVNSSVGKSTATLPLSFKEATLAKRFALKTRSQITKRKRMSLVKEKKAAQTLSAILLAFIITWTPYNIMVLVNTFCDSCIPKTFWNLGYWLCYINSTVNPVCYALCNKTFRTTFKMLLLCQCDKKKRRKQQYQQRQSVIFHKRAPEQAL
Measurement Protocol: Agonist activity at human wild-type M3 receptor expressed in CHO-K1 cells assessed as calcium level by FDSS assay
pEC50: −log10 of the molar value.
Readout Type: pEC50

> print(dat)
                                   compound  readout.type  result
1  CB1C=Cc2cccc(OCC(O)CNC(C)C)c2N1 (configuration not stated)         pEC50  < 5.30
2  CB1C=Cc2c(cccc2OCC(O)CN(C)C)N1 (configuration not stated)         pEC50  < 5.30

###

Tested On: D(2) dopamine receptor (Homo sapiens, UniProt P14416)
Sequence (P14416 whole entry): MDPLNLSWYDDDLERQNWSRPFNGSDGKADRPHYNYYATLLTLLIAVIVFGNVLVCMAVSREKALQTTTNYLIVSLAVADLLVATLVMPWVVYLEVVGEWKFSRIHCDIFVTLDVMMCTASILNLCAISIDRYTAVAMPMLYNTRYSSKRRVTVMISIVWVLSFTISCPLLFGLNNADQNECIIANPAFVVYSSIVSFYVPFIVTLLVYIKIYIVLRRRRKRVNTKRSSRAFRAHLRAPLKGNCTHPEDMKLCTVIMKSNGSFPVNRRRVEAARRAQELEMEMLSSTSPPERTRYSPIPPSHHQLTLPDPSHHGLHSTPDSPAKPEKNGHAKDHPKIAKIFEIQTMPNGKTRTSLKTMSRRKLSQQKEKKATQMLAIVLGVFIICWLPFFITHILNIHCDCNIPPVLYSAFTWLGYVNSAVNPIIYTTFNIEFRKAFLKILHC
Measurement Protocol: Agonist activity at human wild-type D2 receptor expressed in CHO-K1 cells assessed as cAMP level by HTRF assay
pEC50: −log10 of the molar value.
Readout Type: pEC50

> print(dat)
                                   molecule  result
1  CB1C=Cc2c(cccc2OCC(O)CN(C)C)N1 (configuration not stated)  < 5.30
2  CB1C=Cc2cccc(OCC(O)CNC(C)C)c2N1 (configuration not stated)  < 5.30

###

Tested On: Muscarinic acetylcholine receptor M3 (Homo sapiens)
Measurement Protocol: Antagonist activity at human wild-type M3 receptor expressed in CHO-K1 cells assessed as acetylcholine-induced calcium by FDSS assay
pIC50: −log10 of the molar value.
Readout Type: pIC50

> print(dat)
                                   compound  result
1  CB1C=Cc2cccc(OCC(O)CNC(C)C)c2N1 (configuration not stated)  < 5.30
2  CB1C=Cc2c(cccc2OCC(O)CN(C)C)N1 (configuration not stated)  < 5.30

###

Known IC50 of a selection of compounds
Tested On: 5-hydroxytryptamine receptor 2A (Homo sapiens, UniProt P28223)
Sequence (P28223 whole entry): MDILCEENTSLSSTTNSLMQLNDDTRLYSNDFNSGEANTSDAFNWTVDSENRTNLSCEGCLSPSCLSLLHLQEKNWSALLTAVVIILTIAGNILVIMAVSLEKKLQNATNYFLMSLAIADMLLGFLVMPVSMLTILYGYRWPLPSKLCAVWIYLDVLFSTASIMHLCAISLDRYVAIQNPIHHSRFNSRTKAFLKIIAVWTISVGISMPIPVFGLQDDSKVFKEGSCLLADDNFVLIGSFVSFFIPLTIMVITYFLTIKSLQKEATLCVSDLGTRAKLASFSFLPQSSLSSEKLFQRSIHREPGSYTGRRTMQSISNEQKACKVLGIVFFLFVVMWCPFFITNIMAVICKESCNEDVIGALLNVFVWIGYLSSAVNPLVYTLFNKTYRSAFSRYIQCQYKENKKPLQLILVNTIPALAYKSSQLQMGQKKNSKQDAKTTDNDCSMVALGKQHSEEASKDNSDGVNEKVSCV
Measurement Protocol: Antagonist activity at human 5-HT2A receptor expressed in CHO-K1 cells assessed as seretonin-induced calcium level by FDSS assay
Readout Type: IC50

> print(dat)
                                   compound                                 tested.on  readout.type     result
1  CB1C=Cc2c(cccc2OCC(O)CN(C)C)N1 (configuration not stated)  5-hydroxytryptamine receptor 2A (Homo sapiens, UniProt P28223)          IC50  > 5.01 µM
2  CB1C=Cc2cccc(OCC(O)CNC(C)C)c2N1 (configuration not stated)  5-hydroxytryptamine receptor 2A (Homo sapiens, UniProt P28223)          IC50  > 5.01 µM
